- Test system: Escherichia coli
- experiment-summary: Antibacterial activity against Escherichia coli at 30 ug/ml by agar plate diffusion technique
- Type: functional
- condition-set: read-out: IZ
property-measured: zone of inhibition at 30 µg/mL (mm)
Just the number please, in mm, no unit attached.

Cc1occc1-c1nnc2n1NC(c1ccco1)S2 (stereo unspecified) ... 15.2
COc1ccc(Cc2nnc3sc(-c4ccnc5ccccc45)nn23)cc1OC ... 18.6
Cc1cc(-c2nn3c(-c4ccoc4C)nnc3s2)c2ccccc2n1 ... 17

Please look up its zone of inhibition at 30 µg/mL: COc1ccc(Cl)c(-c2nnc3sc(-c4ccnc(F)c4)nn23)c1 19.7

// query: COc1ccc(Cl)c(-c2nnc3sc(Cc4c[nH]c5ccc(OC)cc45)nn23)c1 13.2

Similarly, COc1ccc(Cc2nnc3n2NC(c2ccco2)S3)cc1OC (stereo unspecified) ? 14.2

How about COc1ccc(Cl)c(-c2nnc3n2NC(c2ccc[nH]2)S3)c1 (stereo unspecified) ? 14.3

Also need COc1ccc(Cl)c(-c2nnc3sc(Cc4c[nH]c5ccccc45)nn23)c1 , thanks. 12.4

Another compound to look at: COc1ccc(Cc2nnc(S)n2N)cc1OC 10.1

Request: COc1ccc(Cl)c(-c2nnc3sc(-c4ccnc(Cl)c4)nn23)c1 19.2

// repeat for COc1ccc(Cc2nnc3sc(-c4ccnc(Cl)c4)nn23)cc1OC and report 19.7

----------
- System: Bacillus subtilis
- experiment-summary: Antibacterial activity against Bacillus subtilis at 20 ug/ml by agar plate diffusion technique
- Assay type: functional
- condition-set: read-out: IZ
property-measured: zone of inhibition at 20 µg/mL (mm)
Provide only the numeric value, understood in mm.

The examples below pair each entry with its known result.
COc1ccc(Cl)c(-c2nnc3sc(-c4ccnc(Cl)c4)nn23)c1 ... 13.8
Cc1occc1-c1nnc2n1NC(c1ccco1)S2 (stereo unspecified) ... 10.7

Item COc1ccc(Cl)c(-c2nnc3n2NC(c2ccc[nH]2)S3)c1 (stereo unspecified) has what recorded zone of inhibition at 20 µg/mL? 4

What about Cc1occc1-c1nnc2sc(-c3cc(O)nc(O)c3)nn12 ? 10.4

Now consider COc1ccc(Cc2nnc3sc(-c4cc(O)nc(O)c4)nn23)cc1OC . 8.12

// same read-out, input: COc1ccc(Cc2nnc3sc(-c4ccnc5ccccc45)nn23)cc1OC 13.3

----------
- Test system: Escherichia coli
- experiment-summary: Antibacterial activity against Escherichia coli at 10 ug/ml by agar plate diffusion technique
- Format: functional
- condition-set: read-out: IZ
property-measured: zone of inhibition at 10 µg/mL (mm)
The response must be a number in mm with no trailing unit.

Guide cases for zone of inhibition at 10 µg/mL, answers given:
COc1ccc(Cc2nnc(S)n2N)cc1OC ... 4.86
COc1ccc2[nH]c(C)c(Cc3nn4c(-c5ccoc5C)nnc4s3)c2c1 ... 5.12
COc1ccc(Cl)c(-c2nnc3sc(Cc4c[nH]c5ccc(OC)cc45)nn23)c1 ... 5.1

Quick one: zone of inhibition at 10 µg/mL for COc1ccc(Cc2nnc3sc(Cc4c[nH]c5ccccc45)nn23)cc1OC ? 4.9

----------
zone of inhibition at 30 µg/mL listing for selected compounds.
- Tested on: Aspergillus niger
- experiment-summary: Antifungal activity against Aspergillus niger at 30 ug/ml by paper disc method
- Assay type: functional
- condition-set: read-out: IZ
Write the answer as a number in mm, unit excluded.

Some solved entries appear below for comparison.
COc1ccc(Cl)c(-c2nnc(S)n2N)c1 ... 11
COc1ccc(Cl)c(-c2nnc3n2NC(c2ccco2)S3)c1 (stereo unspecified) ... 13.1

# input compound: COc1ccc(Cc2nnc3sc(-c4ccnc5ccccc45)nn23)cc1OC ; wanted: its zone of inhibition at 30 µg/mL 18

Lookup COc1ccc(Cc2nnc3sc(-c4ccnc(Cl)c4)nn23)cc1OC 18.4

Now this one: Cc1occc1-c1nnc2sc(-c3ccnc4ccccc34)nn12 19.6

And what about the compound COc1ccc(Cl)c(-c2nnc3sc(-c4ccnc(Cl)c4)nn23)c1 ? 18.4

Now consider COc1ccc(Cl)c(-c2nnc3sc(Cc4c(C)[nH]c5ccc(OC)cc45)nn23)c1 and answer again. 12.3
